# Protocol Text: NOVARTIS: Cytotoxicity against human hepatocellular carcinoma cell line (Huh7)
# Type: toxicity, cell-based, Huh-7
# Protocol Conditions: Huh7 cells (hepatocellular carcinoma cell line)
Items are presented alongside their recorded CC50.
Measured Attribute: CC50 (µM)

{"Molecule": "CCCc1c(C)nc2ccc(C)cc2c1O", "Limit Sign": ">", "Measured": 100}
{"Molecule": "CC1=C(C(=O)OC(C)C)C(c2ccc(F)cc2)C2=C(CC(c3ccc(Cl)cc3)CC2=O)N1 (stereo not given)", "Limit Sign": "=", "Measured": 29.7}
{"Molecule": "COCCn1c(SCC(=O)c2ccc(C)cc2C)nnc1-c1ccco1", "Limit Sign": ">", "Measured": 10}
{"Molecule": "CC(=O)N(C1=C(N2CCN(C)CC2)C(=O)c2ccccc2C1=O)c1cc(C)cc(C)c1", "Limit Sign": "=", "Measured": 12.7}
{"Molecule": "NC(=O)C1CCN(S(=O)(=O)c2cc(Br)c(Br)s2)CC1", "Limit Sign": ">", "Measured": 10}
{"Molecule": "CCc1ccccc1-n1c(C(C)N(C)C(=O)/C=C/c2ccc([N+](=O)[O-])cc2)nc2ccccc2c1=O (stereo not given)", "Limit Sign": "=", "Measured": 8.35}
{"Molecule": "Cn1nc(C(=O)NCc2ccccc2)c2c1CCN(Cc1cccc(O)c1)C2", "Limit Sign": ">", "Measured": 100}
{"Molecule": "CCCC[n+]1c(-c2ccccc2)cc(-c2ccccc2)cc1-c1ccccc1", "Limit Sign": "=", "Measured": 12.9}
{"Molecule": "Cc1c(-c2ccccc2)c2ccccc2n1CCc1ccc(C)[n+](C)c1", "Limit Sign": ">", "Measured": 100}
{"Molecule": "COc1ccccc1Cc1nc2ccccc2nc1SCC(=O)Nc1cccc(C(F)(F)F)c1", "Limit Sign": ">", "Measured": 100}

###

# Protocol Text: NOVARTIS: Cytotoxicity against human hepatocellular carcinoma cell line (Huh7)
# Type: toxicity, cell-based, Huh-7
# Protocol Conditions: Huh7 cells (hepatocellular carcinoma cell line)
Measured Attribute: CC50

{"Compound": "Cc1nc(-c2ccc[n+](C)c2)sc1C(=O)C=Cc1ccc(Cl)cc1", "Measured Attribute": "CC50", "Measured": "65.2 µM"}
{"Compound": "CCN(CC)CCNc1ccc(Nc2ccnc3cc4ccccc4cc23)cc1", "Measured Attribute": "CC50", "Measured": "2.36 µM"}
{"Compound": "COC(=O)C1=C(C)NC(=Cc2cc(C)n(-c3ccccc3C(F)(F)F)c2C)C1=O", "Measured Attribute": "CC50", "Measured": "> 100 µM"}
{"Compound": "CCCNC(=O)N1CCC2(CC1)CC(=O)c1cc(C)ccc1O2", "Measured Attribute": "CC50", "Measured": "> 100 µM"}
{"Compound": "COc1ccc2c(Cl)c(C(=O)Nc3cc(C)on3)sc2c1Cl", "Measured Attribute": "CC50", "Measured": "> 100 µM"}
{"Compound": "CCCCOc1ccc(C(=O)Nc2c3c(nn2-c2ccc(C)cc2C)CSC3)cc1", "Measured Attribute": "CC50", "Measured": "> 10 µM"}
{"Compound": "Cc1cccc(OCC(=O)NCCNC2=NS(=O)(=O)c3ccccc32)c1", "Measured Attribute": "CC50", "Measured": "> 10 µM"}
{"Compound": "CCc1ccc2c(c1)C(c1ccncc1)=NNC(c1ccncc1)=N2", "Measured Attribute": "CC50", "Measured": "> 10 µM"}
{"Compound": "CC1=NOC(=O)C1=Cc1cccs1", "Measured Attribute": "CC50", "Measured": "49.7 µM"}
{"Compound": "COc1cc(/C=C2/SC(=Nc3ccccc3)NC2=O)ccc1OC(=O)c1ccccc1", "Measured Attribute": "CC50", "Measured": "> 10 µM"}
{"Compound": "CN(CCCNc1ccnc2cc(Cl)ccc12)S(=O)(=O)c1ccc(Cl)c([N+](=O)[O-])c1", "Measured Attribute": "CC50", "Measured": "3.14 µM"}
{"Compound": "c1ccc(CSc2scnc2[P+](c2ccccc2)(c2ccccc2)c2ccccc2)cc1", "Measured Attribute": "CC50", "Measured": "3.19 µM"}
{"Compound": "Oc1ccc(-c2cncc(NCc3ccccc3)n2)cc1", "Measured Attribute": "CC50", "Measured": "> 10 µM"}
{"Compound": "CCOC(=O)C1=NNC2C(=O)N(c3cccc(C)c3C)C(=O)C12 (stereo not drawn)", "Measured Attribute": "CC50", "Measured": "> 10 µM"}
{"Compound": "C=CC1(O)CN2CCC1CC2[C@@H](O)c1ccnc2ccc(OC)cc12 (stereo partly drawn)", "Measured Attribute": "CC50", "Measured": "> 10 µM"}
{"Compound": "Cc1cc(C)n(CC(O)Cn2c3ccc(I)cc3c3cc(I)ccc32)n1 (stereo not drawn)", "Measured Attribute": "CC50", "Measured": "> 100 µM"}
{"Compound": "Cc1nc(-c2ccccc2)nc(C(=O)N2CCN(C(=O)NC3CCCCC3)C(C)C2)c1C(=O)OC(C)C (stereo not drawn)", "Measured Attribute": "CC50", "Measured": "> 100 µM"}
{"Compound": "CC1CCCCN1CCCNc1ncc(C(=O)NCCc2ccccc2)c(NCC2CCCCC2)n1 (stereo not drawn)", "Measured Attribute": "CC50", "Measured": "> 10 µM"}
{"Compound": "COc1cccc(Nc2nc(NCC3CCCO3)c3ccccc3n2)c1 (stereo not drawn)", "Measured Attribute": "CC50", "Measured": "7.67 µM"}
{"Compound": "O=C(Oc1ccccc1-c1nc2ccccn2c1NC1CCCCC1)c1ccc([N+](=O)[O-])cc1Cl", "Measured Attribute": "CC50", "Measured": "> 10 µM"}
{"Compound": "Brc1ccc(Nc2nc(NCc3ccco3)c3ccccc3n2)cc1", "Measured Attribute": "CC50", "Measured": "7.15 µM"}
{"Compound": "COc1cc(NC(C)CCCN(Cc2ccc(F)cc2)C(=O)CCc2ccccc2)c2ncccc2c1 (stereo not drawn)", "Measured Attribute": "CC50", "Measured": "4.62 µM"}
{"Compound": "Cc1ccn2c(NC(C)(C)CC(C)(C)C)c(-c3ccccc3OC(=O)c3cccs3)nc2c1", "Measured Attribute": "CC50", "Measured": "> 10 µM"}
{"Compound": "CC(C)NC(=O)c1ccc2c(c1)N=C(/C=C/c1ccccc1)N(CC1CCCCC1)C2", "Measured Attribute": "CC50", "Measured": "> 10.2 µM"}
{"Compound": "CC[n+]1c(C=Cc2ccc(OC)cc2)ccc2ccccc21", "Measured Attribute": "CC50", "Measured": "10.3 µM"}
{"Compound": "O=C(c1cnn(-c2ccccc2)c1C(F)(F)F)N1CCN(c2ccnc3cc(Cl)ccc23)CC1", "Measured Attribute": "CC50", "Measured": "> 100 µM"}
{"Compound": "CN(C)c1ccc2c(c1)Sc1cc(N(C)C)ccc1N2C(=O)c1ccccc1", "Measured Attribute": "CC50", "Measured": "> 100 µM"}
{"Compound": "COc1cc(NC(=O)Cc2ccccc2OC)cc(OC)c1", "Measured Attribute": "CC50", "Measured": "> 10 µM"}
{"Compound": "c1ccc(Oc2cccc(CN3CCc4nc(N5CCCCC5)sc4C3)c2)cc1", "Measured Attribute": "CC50", "Measured": "> 10 µM"}
{"Compound": "CCN1CCN(c2cc(C)c3cc(NC(=O)c4cccc([N+](=O)[O-])c4)ccc3n2)CC1", "Measured Attribute": "CC50", "Measured": "20.3 µM"}
{"Compound": "Cc1cc(N2CCCCC2)nc2ccc(NC(=O)c3cncc(Br)c3)cc12", "Measured Attribute": "CC50", "Measured": "> 10 µM"}
{"Compound": "OC1(c2ccc(Cl)c(C(F)(F)F)c2)CCN(CCOC2c3ccccc3CSc3ccc(Cl)cc32)CC1 (stereo not drawn)", "Measured Attribute": "CC50", "Measured": "19.2 µM"}
{"Compound": "CCN1CC=C(c2c[nH]c3ccccc23)CC1", "Measured Attribute": "CC50", "Measured": "> 10 µM"}
{"Compound": "O=C1C(=O)c2ncccc2-c2cccnc21", "Measured Attribute": "CC50", "Measured": "5.91 µM"}
{"Compound": "CCOc1ccccc1C=NNc1nc(Nc2ccccc2)nc(Nc2ccccc2)n1", "Measured Attribute": "CC50", "Measured": "> 10 µM"}
{"Compound": "NCC(c1ccc(F)cc1)c1ccc(F)cc1", "Measured Attribute": "CC50", "Measured": "> 9.21 µM"}
{"Compound": "NNC(=O)C1CCCN1S(=O)(=O)c1ccc(Cl)cc1 (stereo not drawn)", "Measured Attribute": "CC50", "Measured": "> 10 µM"}
{"Compound": "CC(=O)Nc1cccc(N(C(=O)C2COc3ccccc3O2)C(C(=O)NC2CCCCC2)c2ccc(O)cc2)c1 (stereo not drawn)", "Measured Attribute": "CC50", "Measured": "> 10 µM"}
{"Compound": "CCOC(=O)C1=C(C)NC2=C(C(=O)CC(c3ccc(OC)c(OC)c3)C2)C1c1ccc(Cl)cc1Cl (stereo not drawn)", "Measured Attribute": "CC50", "Measured": "> 100 µM"}
{"Compound": "Cc1cc(OC(C)C(=O)N2CCc3ccccc32)ccc1Cl (stereo not drawn)", "Measured Attribute": "CC50", "Measured": "> 100 µM"}
{"Compound": "OC(CNCc1ccco1)Cn1c2ccc(Cl)cc2c2cc(Cl)ccc21 (stereo not drawn)", "Measured Attribute": "CC50", "Measured": "> 100 µM"}
{"Compound": "O=C1c2ccc3c4c(ccc(c24)C(=O)N1CCCCO)C(=O)N(CCCCO)C3=O", "Measured Attribute": "CC50", "Measured": "4.38 µM"}
{"Compound": "c1cncc(-c2ncc(-c3cnccn3)c(-c3cccnc3)n2)c1", "Measured Attribute": "CC50", "Measured": "> 10 µM"}
